This collection of values is drawn from a melting point compilation (Tetko et al.; mined from patent text by program, amines drawn as free bases though some values may be those of a salt).

# melting point per record follows

Worked cases, melting point given:
C#CCOc1c(OC)cc(/C=C/C(=O)/C=C/c2cc(OC)c(OC)c(OC)c2)cc1OC    118 to 120 °C
NS(=O)(=O)c1cc(C(=O)O)cc(NCc2ccccc2)c1Nc1ccccc1    248 to 249 °C
CN(Cc1ccc(NC(=O)C2=Cc3cc(-c4ccc5c(c4)CCC(C)(C)O5)ccc3S(=O)(=O)CC2)cc1)C1CCOCC1    222 to 226 °C
Fc1ccc(C(OCCCN2CCN(C(c3ccccc3)c3ccccc3)CC2)c2ccc(F)cc2)cc1    78 to 79 °C
Cc1[nH]c2ccc(Cl)cc2c1C(C(=O)C1(Cl)C=CC=CC1)c1cc(=O)n(C2CCCCC2)[nH]1 (stereo not given)    121 °C

Okay, next one:
Prompt: Would you mind telling me what melting point value was observed for COc1c(C)cccc1Oc1ccccc1 ?
Response: 52 to 53 °C
